Numbers sourced from PubChem BioAssay (NCATS).

target_or_system: Atrial natriuretic peptide receptor 2 (Homo sapiens) (UniProt P20594)
Sequence (P20594 whole entry, looked up): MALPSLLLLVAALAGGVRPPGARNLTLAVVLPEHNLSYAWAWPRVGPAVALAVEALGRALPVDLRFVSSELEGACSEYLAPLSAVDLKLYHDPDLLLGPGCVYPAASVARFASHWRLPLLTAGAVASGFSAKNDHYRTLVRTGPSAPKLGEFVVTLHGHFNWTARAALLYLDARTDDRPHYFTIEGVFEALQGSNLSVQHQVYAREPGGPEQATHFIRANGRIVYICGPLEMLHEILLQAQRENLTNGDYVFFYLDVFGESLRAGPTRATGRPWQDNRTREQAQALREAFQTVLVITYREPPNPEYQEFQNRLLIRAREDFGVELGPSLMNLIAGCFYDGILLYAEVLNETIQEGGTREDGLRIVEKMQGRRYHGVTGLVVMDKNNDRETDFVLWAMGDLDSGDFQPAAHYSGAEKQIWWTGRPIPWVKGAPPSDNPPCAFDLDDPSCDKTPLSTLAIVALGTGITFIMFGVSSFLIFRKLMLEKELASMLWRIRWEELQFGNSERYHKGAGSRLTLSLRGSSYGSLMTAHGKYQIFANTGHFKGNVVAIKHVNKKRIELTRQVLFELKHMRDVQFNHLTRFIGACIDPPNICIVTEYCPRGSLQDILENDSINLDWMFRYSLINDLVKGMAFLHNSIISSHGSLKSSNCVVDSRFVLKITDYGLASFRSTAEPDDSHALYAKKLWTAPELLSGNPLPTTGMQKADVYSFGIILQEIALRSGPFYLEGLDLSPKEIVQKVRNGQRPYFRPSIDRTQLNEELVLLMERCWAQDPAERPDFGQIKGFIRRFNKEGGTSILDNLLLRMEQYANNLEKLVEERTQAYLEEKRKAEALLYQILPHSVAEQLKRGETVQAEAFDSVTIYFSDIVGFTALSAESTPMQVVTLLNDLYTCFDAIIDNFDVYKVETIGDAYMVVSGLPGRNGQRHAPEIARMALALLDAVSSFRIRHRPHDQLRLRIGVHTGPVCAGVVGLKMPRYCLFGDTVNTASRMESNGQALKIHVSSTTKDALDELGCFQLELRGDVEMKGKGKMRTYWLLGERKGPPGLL
assay_notes: Natriuretic polypeptide receptor (hNpr2) antagonism - Pilot subtype selectivity assay (AID 1347050)
study_conditions: NPR2-expressing cells, cGMP antagonist-mode read-out; series mostly up to 38.3 µM
Inconclusive results are not listed. Activity calls are given as the source filed them. Calls come from the whole dose curve.
Reply using exactly one outcome from active, inactive

Some solved entries appear below for comparison.
| molecule | category |
| --- | --- |
| O=C1c2ccccc2-c2n[nH]c3cccc1c23 | inactive |
| COc1ccc2cc([C@H](C)C(=O)O)ccc2c1 | inactive |
| CN(C)CCCC1(c2ccc(F)cc2)OCc2cc(C#N)ccc21 (stereo not drawn) | inactive |
| O=c1ccc2ccc(O)c(O)c2o1 | inactive |
| CCN(CC)C(=S)SSC(=S)N(CC)CC | active |
| O=C(c1ccccc1)c1ccc2n1CCC2C(=O)O (stereo not drawn) | inactive |

Ask: Which outcome was entered for the molecule COc1cc2nc(N3CCN(C(=O)C4CCCO4)CC3)nc(N)c2cc1OC (stereo not drawn) in this test?
Result: inactive

Ask: Identify the outcome logged in this assay for the molecule shown: `CC1(C)NC(=O)N(c2ccc([N+](=O)[O-])c(C(F)(F)F)c2)C1=O`
Result: inactive

Ask: Record lookup: outcome of this test for COc1cc2c(cc1OC)C1CC(=O)C(CC(C)C)CN1CC2 (stereo not drawn) ?
Result: inactive

Ask: // return assay outcome for `CC1(C)C(=O)N(CCN2CCC(C(=O)c3ccc(F)cc3)CC2)c2ccccc21`
Result: inactive

Ask: Query: recorded result category for `O=C(CCc1ccc(O)cc1)c1c(O)cc(O)cc1O` in this test
Result: inactive

Ask: Please indicate how the test categorized `CNC[C@H](O)c1ccc(O)c(O)c1` .
Result: inactive

Ask: Given `CC(=O)N1CCN(c2ccc(OC[C@H]3CO[C@](Cn4ccnc4)(c4ccc(Cl)cc4Cl)O3)cc2)CC1` , state the outcome it received in this test.
Result: inactive

Ask: Please let me know the test result on file for `NNc1nncc2ccccc12` .
Result: inactive

Ask: Recorded test outcome, item `Nc1nc(N)c(N=O)c(OCC2CCCCC2)n1`
Result: inactive
